measurement target: T1, Human MuSK (R&D Systems, cat. 10189-MK, histidine tag) (human, UniProt O15146 24-495)
T1 construct: Bought protein; also called human monomeric MuSK-6xhis; not shown: histidine tag (6xhis)
T1 sequence: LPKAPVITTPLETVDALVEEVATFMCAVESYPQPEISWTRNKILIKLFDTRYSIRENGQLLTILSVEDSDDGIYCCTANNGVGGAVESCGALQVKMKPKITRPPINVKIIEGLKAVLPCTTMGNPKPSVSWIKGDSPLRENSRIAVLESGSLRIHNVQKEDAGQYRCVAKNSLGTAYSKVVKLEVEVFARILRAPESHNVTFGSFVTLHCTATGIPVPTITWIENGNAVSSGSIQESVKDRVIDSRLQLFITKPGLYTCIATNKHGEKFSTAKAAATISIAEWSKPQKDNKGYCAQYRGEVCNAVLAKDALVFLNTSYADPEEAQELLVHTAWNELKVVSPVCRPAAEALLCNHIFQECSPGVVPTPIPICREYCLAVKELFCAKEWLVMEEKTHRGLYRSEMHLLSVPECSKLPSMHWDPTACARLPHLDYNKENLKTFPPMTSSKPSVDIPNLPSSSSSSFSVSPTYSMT
method notes: SPR (Biacore), MuSK-coated chip presaturated with 500 nM 3F6c (competitor)
property measured: extra amplitude (%)
Answers are plain numbers, in %.

For each of the binders below, state extra amplitude (%).
1. 3F6c (antibody, human IgG1, kappa, L234A L235A, V domains shown) VH: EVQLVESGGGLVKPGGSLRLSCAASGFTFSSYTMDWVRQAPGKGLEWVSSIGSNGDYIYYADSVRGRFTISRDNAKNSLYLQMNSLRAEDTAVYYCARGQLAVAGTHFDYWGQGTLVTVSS VL: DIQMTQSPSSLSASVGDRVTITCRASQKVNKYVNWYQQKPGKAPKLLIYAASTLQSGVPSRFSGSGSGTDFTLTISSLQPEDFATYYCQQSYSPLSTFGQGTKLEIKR
2. 3B5 (antibody, V domains shown, also called 3B5wt) VH: QVQLVQSGAVVAKPGASVQVSCKTSGYTFTGQYLHWVRQAPGQGLEWIGWINPSSGVTKFAEKFEGRATMTRDTSITTAYIDLRSLRSDDTATYYCATLSLGVYYVGMVAWGQGTLVTVSS VL: ELTQPPSVSVSPGQTATITCSGDGLAQQHVYWFQQRPGQAPLLIIYKDIERPSGIPERFSGSSSGTTAMLTISGVQAEDEADYYCQSGDRTATSVLFGGGTKMTVLG

RESULT:
[1.8, 397]
